Reference source: PubChem BioAssay (NCI)

Please respond with reported growth for every item in the list.
Test system: UACC-257 melanoma
Assay: NCI-60 one-dose screen, 48 h (100 = growth as untreated, 0 = no growth, -100 = all killed)
Details: 10 µM unless noted
Compounds without any hit were thinned out: in the full panel of roughly 83,000, 20% have a hit.
Numbers only, in %.

Worked cases, answers included:
COMPOUND	OUTPUT_UNIT	growth
Cn1ccnc1C(=O)/C=C/c1ccc(NC(=O)c2ccc(F)cc2)cc1	%	84.2
COc1ccccc1NCc1cccn1Cc1ccc(F)cc1	%	102
C[C@@H]1C[C@H]2C(=O)O[C@@H](C)C(NC(=O)[C@H](Cc3cc(F)cc(F)c3)NC(=O)Nc3ccc(Cl)cc3F)C(=O)N3CCC[C@H]3C(=O)N3CCCC[C@H]3C(=O)N[C@@H](CO)C(=O)N2C1 (some centres not stated)	%	15.8
NS(=O)(=O)c1ccc(Nc2cc(-c3ccccc3)nc(SCC(=O)c3ccccc3)n2)cc1	%	99
CC(Nc1c(C#N)cnc2ccc(-c3cnc(N)nc3)cc12)c1ccccc1 (configuration not stated)	%	34.1
N#Cc1cnc2ccc(-c3cnc4[nH]ncc4c3)cc2c1N1CCc2cc(F)c(Cl)cc21	%	36
O=C(CCn1c[n+](CC(=O)c2ccc(-c3ccccc3)cc2)c2ccccc21)Nc1cccc2cccnc12	%	23.6
COc1cccc2c1CN(C(=O)c1ccc(O)c(C(=O)N3Cc4ccc(OCCC[P+](c5ccccc5)(c5ccccc5)c5ccccc5)cc4C3)c1)C2	%	44.8

# return growth for each item in the list
1. CCNC(=O)N1CCc2cc(OC)c(OCCc3ccc(OC)c(N)c3)cc2C1c1cc(C)c(C)cc1C (configuration not stated)
2. CCO/C=N/C1=C(C#N)C(c2ccc(F)cc2)c2sc3c(CC)cccc3c2O1 (configuration not stated)
3. CC(C)(C)n1cc(-c2ccnc(NCCCNS(=O)(=O)c3cccc(F)c3)n2)c(-c2ccc(Cl)c(O)c2)n1
4. NS(=O)(=O)c1ccc(Nc2nc(N/N=C/CCc3ccccc3)nc(Nc3ccccc3)n2)cc1

Result ::
1. 50
2. 69.5
3. 114
4. 112
